Method Summary: In vivo oral bioavailability assay in rats
Measurement Setup: male, Sprague-Dawley, rat, plasma, oral, 60 mg/kg, oral 60 mg/kg vs intravenous 5 mg/kg, read-out: F, absolute oral bioavailability
From the text: The compound PCMI-08 was synthesized and detected according to the methods provided in the present invention. The internal standard, paclitaxel, was purchased from China's National Institute for the Control of Pharmaceutical and Biological Products (NICPBP). Chromatography-grade acetonitrile was purchased from Sigma-Aldrich Inc. Tween 80 and ethyl acetate were purchased from Aladdin reagent Inc. Male S.D. rats were purchased from Beijing Weitonglihua Inc. and raised in animal house for two weeks. […]
Parameter Measured: bioavailability (%)
Note: unit % is implicit; provide only the numeric part.

# input compound: `CO[C@H]1C[C@H]2OC[C@@]2(OC(C)=O)[C@H]2[C@H](OC(=O)c3ccccc3)[C@]34OC(=O)O[C@H]3[C@H](OC(=O)[C@H](O)[C@@H](NC(=O)OC(C)(C)C)c3ccccc3)C(C)=C([C@@H](OC(=O)N(C)C)C(=O)[C@]12C)C4(C)C` ; wanted: its bioavailability
65.8
